test_protocol: log P by HPLC on a reversed-phase column (C 18), EEC Directive 79/831 Annex V.A8
Format: physicochemical
reported_conditions: reversed-phase HPLC column (C 18); Table 4 (aldehydes of formula IV); HPLC C 18, 40° C., 0.1% aqueous formic acid and acetonitrile
reported_endpoint: chromatographic logP

Some solved entries appear below for comparison.
> print(dat)
       compound.structure.string     reported.endpoint  value.observed
1       Cc1ccc(C=O)c(C2(C)CC2)c1  chromatographic logP            3.44
2    COc1cc(C=O)c(C2(C)CC2)cc1OC  chromatographic logP            2.56
3  COC(=O)C1(c2ccc(Cl)cc2C=O)CC1  chromatographic logP            2.68

(I) Cc1ccc(C2(C(F)F)CC2)c(C=O)c1
(II) CCCC1(c2cc(Cl)ccc2C=O)CC1
Lab note: record which item had the higher chromatographic logP, I or II . Use the label to indicate which entry you chose. II

* * *

test_protocol: log P by HPLC on a reversed-phase column (C 18), EEC Directive 79/831 Annex V.A8
Assay type: physicochemical
reported_conditions: HPLC, reversed-phase column (C 18), 40° C., 0.1% aqueous formic acid and acetonitrile, linear gradient 10% to 90% acetonitrile
Procedure: In table 1, the log P values were determined in accordance with EEC Directive 79/831 Annex V.A8 by HPLC (High Performance Liquid Chromatography) on a reversed-phase column (C 18), using the method described below: Temperature: 40° C.; Mobile phases: 0.1% aqueous formic acid and acetonitrile; linear gradient from 10% acetonitrile to 90% acetonitrile. […]
reported_endpoint: logP

> print(dat)
                   compound.structure.string  value.observed
 1  Cc1ccc(C2(C)CC2)c(CN(C(=O)c2c(C(F)F)nn(C)c2Cl)C2(C)CC2)c1            4.63
 2  Cc1ccc(C2(C)CC2)c(CN(C(=S)c2c(C(F)F)nn(C)c2Cl)C2CC2)c1            4.98
 3  CCC1(c2cc(C)c(F)cc2CN(C(=O)c2c(C(F)F)nn(C)c2Cl)C2CC2)CC1            4.85
 4  CC(C)c1ccc(CN(C(=O)c2c(C(F)F)nn(C)c2F)C2CC2)c(C2(C)CC2)c1            4.90
 5  Cn1nc(C(F)F)c(C(=O)N(Cc2ccc(Cl)cc2C2(C)CC2)C2CC2)c1Cl            4.54
 6  COc1cc(CN(C(=S)c2c(C(F)F)nn(C)c2F)C2CC2)c(C2(C)CC2)cc1OC            3.96
 7  Cn1nc(C(F)F)c(C(=O)N(Cc2ccccc2C2(C)CC2)C2CC2)c1F            3.85
 8  COC1(c2ccc(-c3ccoc3)cc2CN(C(=O)c2c(C(F)F)nn(C)c2F)C2CC2)CC1            3.80
 9  CCC1(c2cc(C(F)(F)F)ccc2CN(C(=O)c2c(C(F)F)nn(C)c2Cl)C2CC2)CC1            4.86
10  Cn1nc(C(F)F)c(C(=O)N(Cc2cccc(Cl)c2C2(C)CC2)C2CC2)c1Cl            4.44
11  C=C(C)c1cccc(CN(C(=O)c2c(C(F)F)nn(C)c2F)C2CC2)c1C1(C)CC1            4.64
12  CCC1(c2ccccc2CN(C(=O)c2c(C(F)F)nn(C)c2Cl)C2CC2)CC1            4.34
13  Cc1ccc(C2(C(F)F)CC2)c(CN(C(=O)c2c(C(F)F)nn(C)c2Cl)C2CC2)c1            3.76
14  CC(C)CC1(c2cc(Cl)ccc2CN(C(=O)c2c(C(F)F)nn(C)c2F)C2CC2)CC1            5.42
15  CCCC1(c2ccc(C)cc2CN(C(=O)c2c(C(F)F)nn(C)c2F)C2CC2)CC1            5.03
16  Cc1ccc(C2(C(F)F)CC2)c(CN(C(=O)c2c(C(F)F)nn(C)c2F)C2CC2)c1            3.64
17  Cn1nc(C(F)F)c(C(=S)N(Cc2cc(F)ccc2C2(C)CC2)C2CC2)c1Cl            4.64
18  CCc1ccc(C2(C)CC2)c(CN(C(=O)c2c(C(F)F)nn(C)c2F)C2CC2)c1            4.56
19  Cc1ccc(C2(C)CC2)c(CN(C(=O)c2c(C(F)F)nn(C)c2F)C2(C)CC2)c1            4.51
20  Cc1ccc(F)cc1-c1ccc(CN(C(=O)c2c(C(F)F)nn(C)c2F)C2CC2)c(C2(C)CC2)c1            5.31
21  Cn1nc(C(F)F)c(C(=O)N(Cc2cc(Cl)ccc2C2(C)CC2)C2CC2)c1Cl            4.44
22  Cn1nc(C(F)F)c(C(=S)N(Cc2cc(F)ccc2C2(C)CC2)C2CC2)c1F            4.49
23  COC1(c2ccccc2CN(C(=O)c2c(C(F)F)nn(C)c2F)C2CC2)CC1            3.27
24  Cc1ccc(C2(C3CC3)CC2)c(CN(C(=O)c2c(C(F)F)nn(C)c2Cl)C2CC2)c1            4.72
25  Cn1ccc(-c2ccc(CN(C(=O)c3c(C(F)F)nn(C)c3F)C3CC3)c(C3(C)CC3)c2)c1            4.15
26  Cc1ccc(CN(C(=O)c2c(C(F)F)nn(C)c2Cl)C2CC2)c(C2(C)CC2)c1            4.36
27  CCC1(c2cc(Cl)ccc2CN(C(=O)c2c(C(F)F)nn(C)c2Cl)C2CC2)CC1            4.82
28  Cn1nc(C(F)F)c(C(=O)N(Cc2cc(F)ccc2C2(C)CC2)C2CC2)c1F            3.89
29  Cn1nc(C(F)F)c(C(=O)N(Cc2ccc3c(c2C2(C)CC2)OCO3)C2CC2)c1F            3.53
30  C=Cc1ccc(C2(C)CC2)c(CN(C(=O)c2c(C(F)F)nn(C)c2F)C2CC2)c1            4.34
31  Cn1nc(C(F)F)c(C(=O)N(Cc2cccc(Cl)c2C2(C)CC2)C2CC2)c1F            4.30
32  CCC1(c2ccc(Cl)cc2CN(C(=O)c2c(C(F)F)nn(C)c2F)C2CC2)CC1            4.59
33  C#CC1(c2ccc(C)cc2CN(C(=O)c2c(C(F)F)nn(C)c2Cl)C2CC2)CC1            3.78
34  C#CC1(c2ccc(C)cc2CN(C(=O)c2c(C(F)F)nn(C)c2F)C2CC2)CC1            3.68
35  Cn1nc(C(F)F)c(C(=O)N(Cc2ccc(-c3ccoc3)cc2C2(C)CC2)C2CC2)c1F            4.23
